- Test system: Mycobacterium tuberculosis
- Assay name: Antimycobacterial activity against Mycobacterium tuberculosis H37Rv ATCC 27294 in GAST medium after 1 week by microplate alamar blue assay
- Type: functional
- Condition parameters: H37Rv ATCC 27294, 168 h
Experimental endpoint: log10(MIC) (log10 of the value in µM)

* O=C(OCc1ccccc1)[C@@H]1COC(c2ccc(Cl)c(F)c2)=N1 | 0.81
* O=C(OCc1ccccc1)c1coc(-c2ccc(Br)nc2)n1 | 0.26
* O=C(OCc1ccccc1)[C@@H]1COC(c2cccc(Br)c2)=N1 | 1.72
* O=C(OCc1ccccc1)[C@@H]1COC(c2ccc(OCc3ccccc3)c(F)c2)=N1 | 0.15
* O=C(OCc1ccccc1)[C@@H]1COC(c2ccc([N+](=O)[O-])cc2F)=N1 | 0.94
* COc1cccc(-c2nc(C(=O)OCc3ccccc3)co2)c1 | 0.58
* O=C(OCc1ccccc1)[C@@H]1COC(c2cccnc2)=N1 | 1.97
* CCOc1ccc(-c2nc(C(=O)OCc3ccccc3)co2)cc1 | 0.29
* O=C(OCc1ccccc1)c1coc(-c2cccc(Cl)c2)n1 | 0.00
* CC(C)Oc1ccc(C2=N[C@H](C(=O)OCc3ccccc3)CO2)cc1 | 1.17

====

Stability reference
- Assay name: Chemical stability in simulated gastric fluid assessed as compound remaining after 2 hrs by HPLC analysis
- Format: physicochemical
- Condition parameters: simulated gi fluid
Experimental endpoint: Stability

• O=C(OCc1ccccc1)c1coc(-c2ccccc2OCc2ccccc2)n1 = 4.2%
• COc1ccc(-c2nc(C(=O)OCc3ccccc3)co2)cc1 = 0.4%
• O=C(OCc1ccccc1)[C@@H]1COC(c2ccc(F)c([N+](=O)[O-])c2)=N1 = 2.2%
• O=C(OCc1ccccc1)c1coc(-c2ccccc2)n1 = 0.5%
• O=C(OCc1ccccc1)c1coc(-c2ccccc2Cl)n1 = 4.2%
• O=C(OCc1ccccc1)c1coc(-c2ccc(F)c([N+](=O)[O-])c2)n1 = 2.1%
• O=C(OCc1ccccc1)[C@@H]1COC(c2ccccc2OCc2ccccc2)=N1 = 1.4%
• O=C(OCc1ccccc1)[C@@H]1COC(c2ccccc2)=N1 = 0.4%

====

- Tested on: Mycobacterium tuberculosis
- Assay name: Antimycobacterial activity against Mycobacterium tuberculosis H37Rv ATCC 27294 in GAST medium after 1 week by microplate alamar blue assay
- Format: functional
- Condition parameters: H37Rv ATCC 27294, 168 h
Experimental endpoint: MIC (µM)

• COc1cccc(C2=N[C@H](C(=O)OCc3ccccc3)CO2)c1 = 42.5
• COc1ccc(-c2nc(C(=O)OCc3ccccc3)co2)cc1F = 6.99
• Cc1ccc(C2=N[C@H](C(=O)OCc3ccccc3)CO2)cn1 = 122
• COc1ccc(CNC(=O)c2coc(-c3cccc(Cl)c3)n2)cc1OC = 48.1
• O=C(OCc1ccccc1)c1coc(-c2ccc([N+](=O)[O-])cc2F)n1 = 1.65
• Nc1ccc(-c2nc(C(=O)OCc3ccccc3)co2)cc1 = 3.67
• CCCOc1ccc(-c2nc(C(=O)OCc3ccccc3)co2)cc1 = 1.94

====

- Test system: Mycobacterium tuberculosis
- Assay name: Antimycobacterial activity against Mycobacterium tuberculosis H37Rv ATCC 27294 in GAST medium after 1 week by microplate alamar blue assay
- Assay type: functional
- Condition parameters: H37Rv ATCC 27294, 168 h
MIC reference
Experimental endpoint: MIC (µM)

• O=C(OCc1ccccc1)c1coc(-c2cnccn2)n1 = 22.5
• O=C(OCc1ccccc1)c1coc(-c2ccccc2)n1 = 0.49
• O=C(OCc1ccccc1)[C@@H]1COC(c2ccc(Cl)cc2)=N1 = 14.9
• O=C(OCc1ccccc1)c1coc(-c2cncc(-c3ccccc3)c2)n1 = 0.98

====

- Tested on: Mycobacterium tuberculosis
- Assay name: Antimycobacterial activity against Mycobacterium tuberculosis H37Rv ATCC 27294 in GAST medium after 1 week by microplate alamar blue assay
- Assay type: functional
- Condition parameters: H37Rv ATCC 27294, 168 h
MIC reference
Experimental endpoint: MIC (µM)

* CCOc1ccc(C2=N[C@H](C(=O)OCc3ccccc3)CO2)cc1 | 30.5
* O=C(OCc1ccccc1)[C@@H]1COC(c2ccc(Br)nc2)=N1 | 21.1
* O=C(OCc1ccccc1)c1coc(-c2ccc(Cl)cc2)n1 | 7.77
* COc1ccc(-c2nc(C(=O)OCc3ccccc3)co2)cc1OC | 17.5
* O=C(OCc1ccccc1)c1coc(-c2ccc(F)cc2[N+](=O)[O-])n1 | 9.9
* COc1ccc(CNC(=O)c2coc(-c3ccc([N+](=O)[O-])cc3)n2)cc1OC | 49.5
* COc1ccc(-c2nc(C(=O)OCc3ccccc3)co2)cc1Cl | 5.33
* O=C(O)[C@@H]1COC(c2cccc(Cl)c2)=N1 | 106
* O=C(OCc1ccccc1)[C@@H]1COC(c2ccccn2)=N1 | 127
* O=C(OCc1ccccc1)c1coc(-c2ccc(F)c([N+](=O)[O-])c2)n1 | 0.48
* O=C(OCc1ccccc1)c1coc(-c2ccncc2)n1 | 6.1
* COc1ccccc1C1=N[C@H](C(=O)OCc2ccccc2)CO1 | 29.2
* O=C(OCc1ccccc1)[C@@H]1COC(c2ccncc2)=N1 | 81.3
* CC(C)Oc1ccc(-c2nc(C(=O)OCc3ccccc3)co2)cc1 | 3.21
* O=C(OCc1ccccc1)c1coc(-c2ccccn2)n1 | 2.47
* O=C(OCc1ccccc1)[C@@H]1COC(c2ccc(F)cc2[N+](=O)[O-])=N1 | 40.4
* O=C(OCc1ccccc1)c1coc(-c2ccc([N+](=O)[O-])cc2)n1 | 42.3
* COc1ccc(-c2nc(C(=O)OCc3ccccc3)co2)cc1 | 1.8
* O=C(OCc1ccccc1)c1coc(-c2cncc(Br)c2)n1 | 2.24
* O=C(OCc1ccccc1)[C@@H]1COC(c2cccc(F)c2)=N1 | 6.86
* O=C(OCc1ccccc1)[C@@H]1COC(c2ccc([N+](=O)[O-])cc2)=N1 | 7.59
* O=C(OCc1ccccc1)[C@@H]1COC(c2cccc(Cl)c2OCc2ccccc2)=N1 | 34
* Cc1ccc(-c2nc(C(=O)OCc3ccccc3)co2)cc1 | 7.68
* O=C(OCc1ccccc1)c1coc(-c2cccc(Br)c2)n1 | 6.08
* Nc1ccc(C2=N[C@H](C(=O)OCc3ccccc3)CO2)cc1 | 26.8

====

- System: Mycobacterium tuberculosis
- Assay name: Antimycobacterial activity against Mycobacterium tuberculosis H37Rv ATCC 27294 in GAS medium after 1 week by microplate alamar blue assay
- Assay type: functional
- Condition parameters: H37Rv ATCC 27294, 168 h
MIC reference
Experimental endpoint: MIC

* COC(=O)[C@@H]1COC(c2ccccc2O)=N1 | > 128 µM
* O=C(O)[C@@H]1COC(c2cccc(Cl)c2)=N1 | > 128 µM
* COC(=O)[C@H]1N=C(c2ccccc2)O[C@H]1C | > 128 µM

====

- System: Mycobacterium tuberculosis
- Assay name: Antimycobacterial activity against Mycobacterium tuberculosis H37Rv ATCC 27294 in GAS medium after 1 week by microplate alamar blue assay
- Assay type: functional
- Condition parameters: H37Rv ATCC 27294, 168 h
Experimental endpoint: MIC (µM)

* O=C(OCc1ccccc1)c1coc(-c2ccc([N+](=O)[O-])c(F)c2)n1 | 35.4
* O=C(OCc1ccccc1)c1coc(-c2ccc(OCc3ccccc3)c(F)c2)n1 | 3.03
* O=C(OCc1ccccc1)c1coc(-c2ccc(Cl)c(F)c2)n1 | 2.87
* COc1cccc(C2=N[C@H](C(=O)OCc3ccccc3)CO2)c1 | 24.8
* O=C(OCc1ccccc1)c1coc(-c2ccc([N+](=O)[O-])cc2F)n1 | 0.7
* COc1ccc(CNC(=O)c2coc(-c3cccc(Cl)c3)n2)cc1OC | 118

====

- System: Mycobacterium tuberculosis
- Assay name: Antimycobacterial activity against Mycobacterium tuberculosis H37Rv ATCC 27294 in GAS medium after 1 week by microplate alamar blue assay
- Format: functional
- Condition parameters: H37Rv ATCC 27294, 168 h
Threshold-based label: MIC under 8 µM gives t, MIC not under 8 µM gives f.

• O=C(OCc1ccccc1)[C@@H]1COC(c2ccc(F)cc2[N+](=O)[O-])=N1 = f
• CCOc1ccc(C2=N[C@H](C(=O)OCc3ccccc3)CO2)cc1F = f
• CCCOc1ccc(C2=N[C@H](C(=O)OCc3ccccc3)CO2)cc1 = t
• O=C(O)[C@@H]1COC(c2ccccc2O)=N1 = f
• O=C(OCc1ccccc1)[C@@H]1COC(c2ccc([N+](=O)[O-])cc2OCc2ccccc2)=N1 = f
• O=C(OCc1ccccc1)c1coc(-c2ccc(F)c([N+](=O)[O-])c2)n1 = t
• COc1ccc(-c2nc(C(=O)OCc3ccccc3)co2)cc1 = t
• O=C(OCc1ccccc1)c1coc(-c2cccnc2S(=O)(=O)c2ccccc2)n1 = f
